Reference source: ChEMBL document CHEMBL1126276

- Tested on: Plasmodium berghei
- protocolDescription: Antimalarial activity Plasmodium berghei infected mice (Mus musculus) after 640 mg/kg subcutaneous dose
- Assay type: functional
# Delta mean survival time binned as small value = under 0.9, mid value = from 0.9 up to 10, large value = 10 and over

> print(dat)
                                   molecule  answerlabel
1  COc1ccc(C2C/C(=N\CCCN(C)C)c3c(nc4ccc(Cl)cc4c3O)C2)cc1 (centres undefined)  large value
2  COc1cc(C2C/C(=N\CCCN(C)C)c3c(n(O)c4ccc(Cl)cc4c3=O)C2)cc(OC)c1OC (centres undefined)    mid value
3  COc1ccc(C2CC(=O)c3c(nc4ccc(Cl)cc4c3O)C2)cc1 (centres undefined)  small value
4  CCN(CC)CCCC(C)/N=C1\CC(c2ccc(C(F)(F)F)cc2)Cc2nc3ccc(Cl)cc3c(O)c21 (centres undefined)    mid value
5  Cn1c2c(c(=O)c3cc(Cl)ccc31)C(=O)CC(c1ccc(Cl)c(Cl)c1)C2 (centres undefined)  small value
6  O=C1CC(C2CCCCC2)Cc2c1c(=O)c1cc(Cl)ccc1n2O (centres undefined)  large value
7  O=c1c2c(n(O)c3ccc(Cl)cc13)CC(c1cccc(C(F)(F)F)c1)C/C2=N\C1CCN(Cc2ccccc2)CC1 (centres undefined)  large value
